These entries and their values trace back to ChEMBL document CHEMBL1135036.

Test system: Escherichia coli
Measurement notes: In vitro antibacterial activity against Escherichia coli NIHJ JC-2.
Type: functional
Would you mind telling me the reported MIC of each entry?
Give bare numbers, in µg/mL.

Illustrative cases are given below, each with its answer.
* C[C@@H](O)[C@H]1C(=O)N2C(C(=O)O)=C(C3CNC3)C[C@H]12 | 1.56
* C/N=C/N1CC[C@@H](C2=C(C(=O)O)N3C(=O)[C@H]([C@@H](C)O)[C@H]3C2)C1 | 0.2
* C[C@@H](O)[C@H]1C(=O)N2C(C(=O)O)=C(C3CCCNC3)C[C@H]12 (stereo partly drawn) | 0.39
* C[C@@H](O)[C@H]1C(=O)N2C(C(=O)O)=C(C3CCNCC3)C[C@H]12 | 1.56
* C/C(=C\[C@@]1(C)CCCN1)C1=C(C(=O)O)N2C(=O)[C@H]([C@@H](C)O)[C@H]2C1 | 0.39

Please give MIC, item by item, for the list that follows.
1. C[C@@H](O)[C@H]1C(=O)N2C(C(=O)O)=C([C@@H]3CCNC3)C[C@H]12
2. C[C@@H](O)[C@H]1C(=O)N2C(C(=O)O)=C([C@@H]3CCN(C(=N)CNC(N)=O)C3)C[C@H]12
3. C[C@@H](O)[C@H]1C(=O)N2C(C(=O)O)=C(SCCNC=N)C[C@H]12 [IMIPENEM ANHYDROUS]

## Result
[0.2, 0.2, 0.78]

----------
Subject of test: Dipeptidase 1 (Sus scrofa) (UniProt P22412)
Sequence (P22412 whole entry): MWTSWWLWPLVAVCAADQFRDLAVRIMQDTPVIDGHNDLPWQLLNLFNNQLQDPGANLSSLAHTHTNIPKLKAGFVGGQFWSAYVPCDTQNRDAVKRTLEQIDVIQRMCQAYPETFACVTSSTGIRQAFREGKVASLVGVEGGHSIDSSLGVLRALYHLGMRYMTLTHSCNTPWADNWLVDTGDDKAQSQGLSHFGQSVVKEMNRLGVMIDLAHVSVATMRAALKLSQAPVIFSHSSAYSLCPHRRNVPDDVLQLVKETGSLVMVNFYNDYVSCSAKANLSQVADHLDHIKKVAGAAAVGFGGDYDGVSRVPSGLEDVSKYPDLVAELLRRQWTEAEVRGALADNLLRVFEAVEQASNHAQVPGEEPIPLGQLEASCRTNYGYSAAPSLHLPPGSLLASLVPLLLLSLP
Measurement notes: Tested for stability of compound to swine renal DHP-1 relative to imipenem (IMP)
Type: functional
Assay endpoint: Stability (%)
Numbers only, in %.

* C[C@@H](O)[C@H]1C(=O)N2C(C(=O)O)=C([C@@H]3CCN(C(=N)CO)C3)C[C@H]12 | 13
* C[C@@H](O)[C@H]1C(=O)N2C(C(=O)O)=C([C@@H]3CCN(C4=NCCC4)C3)C[C@H]12 | 8.4
* C[C@@H](O)[C@H]1C(=O)N2C(C(=O)O)=C([C@H]3CCNC3)C[C@H]12 | 16

Please give Stability, item by item, for the list that follows.
1. CC(=N)N1CC[C@@H](C2=C(C(=O)O)N3C(=O)[C@H]([C@@H](C)O)[C@H]3C2)C1
2. C[C@@H](O)[C@H]1C(=O)N2C(C(=O)O)=C(SCCNC=N)C[C@H]12 [IMIPENEM ANHYDROUS]

## Result
8.4
100

Please give Stability, item by item, for the list that follows.
1. C[C@@H](O)[C@H]1C(=O)N2C(C(=O)O)=C(C3CCNC3)C[C@H]12 (stereo partly drawn)
2. C[C@@H](O)[C@H]1C(=O)N2C(C(=O)O)=C([C@@H]3CCN(C(=N)CC(N)=O)C3)C[C@H]12
3. C/C(=C\[C@@]1(C)CCCN1)C1=C(C(=O)O)N2C(=O)[C@H]([C@@H](C)O)[C@H]2C1
4. C/N=C/N1CC[C@@H](C2=C(C(=O)O)N3C(=O)[C@H]([C@@H](C)O)[C@H]3C2)C1
5. C[C@@H](O)[C@H]1C(=O)N2C(C(=O)O)=C(C3CNC3)C[C@H]12
6. C[C@@H](O)[C@H]1C(=O)N2C(C(=O)O)=C(C3CCNCC3)C[C@H]12

## Result
13
13
4.3
7.8
2
18

Please give Stability, item by item, for the list that follows.
1. C[C@@H](O)[C@H]1C(=O)N2C(C(=O)O)=C([C@@H]3CCN(C=N)C3)C[C@H]12
2. C[C@@H](O)[C@H]1C(=O)N2C(C(=O)O)=C([C@@H]3CCNC3)C[C@H]12

## Result
1. 15
2. 8.8
